B1: Intersectin-1, residues 1156 to 1213; numbered along this chain, Q15811 (parent)
chain: AVCQVIGMYDYTAQNDDELAFNKGQIINVLNKEDPDWWKGEVNGQVGLFPSNYVKLTT

# Variants of: B1
# assay.comment: abundance fitness (aPCA) (normalised: wild type 0, dead -1); higher = more abundant; growth selection in yeast, the domain comes from the species named
# assay.context: Homo sapiens

mutation.descriptor | abundance fitness
K32F | -0.576
G47T | -0.941
G7S | 0.309
V46N | -0.703
N52H | -0.469
F21W | -0.718
N15F | -0.539
N31Q | -0.099
P50Q | -1.06
G24F | -0.739
K32N | -0.339
L30I | 0.043
D36G | -0.279
N15S | 0.085
P50N | -0.71
P50I | -0.671
I27W | -0.908
I26P | -0.561
V2D | -0.142
L56M | -0.148
N22G | -0.006
G24A | -0.854
